# Tested on: CCRF-CEM leukemia
# Measurement Protocol: NCI-60 one-dose screen, 48 h
# Details: 10 µM unless noted
Compounds without any hit were thinned out: in the full panel of roughly 83,000, 20% have a hit. Active and inactive are the calls of the source. The calls were made as follows: active = growth percent below 10; inactive = the rest.
// allowed return values: y = active, n = inactive

Previously resolved entries follow.
* COc1ccc(-c2nc3sccn3c2-c2ccnc(NCCCNS(=O)(=O)c3ccc(F)cc3)n2)cc1 | y
* CCOC(=O)c1cc(/C(=N\O)c2cc(OC)c(OC)c(OC)c2)n2cc(C)cc(C)c12 | y
* CCn1c(=O)c2c(=O)c3c4c(oc3oc2c2ccccc21)C(=O)c1ccccc1C4=O | y
* Cc1cc(C)c(NC(=O)c2sc3nc4c(cc3c2N)CN(Cc2ccccc2)CC4)c(C)c1 | n
* O=C1c2ccccc2C(=O)c2c(N=Nc3sc(=O)[nH]c3S)cccc21 | n

What call does the record list for CC(=O)OCC1OC(OCC2OC(OC(C)=O)C(OC(C)=O)C(OC(C)=O)C2OC(C)=O)C(OC(C)=O)C(OC(C)=O)C1OC(C)=O (centres undefined) ?
n
